# System: 786-0 (Kidney Carcinoma)
# Protocol Details: combination Emax (second highest fraction inhibited in the dose matrix, 72 h); higher = more inhibition; extreme values may be limits of the assay
Measure Name: combination Emax
Number only, please.

Consider the following illustrative entries.
[[record]]
compound = "COc1nnc2ccc(N3CCC(c4ccc(OCCN5CCN(C)C(=O)[C@H]5C)cc4)CC3)nn12 [AZD5153] + C=CCn1c(=O)c2cnc(Nc3ccc(N4CCN(C)CC4)cc3)nc2n1-c1cccc(C(C)(C)O)n1 [AZD1775] (first compound max 1 µM, partner max 1 µM)"
measure_name = "combination Emax"
result_value = 0.641

[[record]]
compound = "CN(CCO)CC[C@H](CSc1ccccc1)Nc1ccc(S(=O)(=O)NC(=O)c2ccc(N3CCC([C@@H](O)c4ccccc4-c4ccc(Cl)cc4)CC3)cc2)cc1S(=O)(=O)C(F)(F)F [AZD4320] + CCN(CCO)CCCOc1ccc2c(Nc3cc(CC(=O)Nc4cccc(F)c4)[nH]n3)ncnc2c1 [AZD2811] (first compound max 1 µM, 7x7, partner max 1 µM)"
measure_name = "combination Emax"
result_value = 0.166


Exam item: For the compound NC1(C(=O)N[C@@H](CCO)c2ccc(Cl)cc2)CCN(c2ncnc3[nH]ccc23)CC1 [Capivasertib] + Cn1cnc2c(F)c(Nc3ccc(Br)cc3Cl)c(C(=O)NOCCO)cc21 [Selumetinib] (first compound max 10 µM, 7x7, partner max 10 µM) , give its reported combination Emax.
Marked response: 0.696

###

# Test system: NCI-H1755 (Lung Adenocarcinoma)
# Protocol Details: combination Emax (second highest fraction inhibited in the dose matrix, 72 h); higher = more inhibition; extreme values may be limits of the assay
Each entry below carries its reported combination Emax.
Number only, please.

[[record]]
molecule = "CC(=O)c1c(C)c2cnc(Nc3ccc(N4CCNCC4)cn3)nc2n(C2CCCC2)c1=O [Palbociclib] + Cc1c2c(nn1C)CSCc1cc(n(C)n1)CSc1cc(c3ccccc3c1)OCCCc1c(C(=O)O)n(C)c3c-2c(Cl)ccc13 [AZD5991] (first compound max 10 µM, 7x7, partner max 1 µM)"
result_value = 0.524


Next, consider the following molecule.
Exam item: For the molecule Cc1c2c(nn1C)CSCc1cc(n(C)n1)CSc1cc(c3ccccc3c1)OCCCc1c(C(=O)O)n(C)c3c-2c(Cl)ccc13 [AZD5991] + C[C@@H](Nc1cc(F)cc(F)c1)c1cc(C(=O)N(C)C)cc2c(=O)cc(N3CCOCC3)oc12 [AZD8186] (first compound max 1 µM, 7x7, partner max 3 µM) , give its reported combination Emax.
Marked response: 0.418

###

# Tested on: NCI-H1755 (Lung Adenocarcinoma)
# Protocol Details: Bliss excess, mean over the matrix (fraction); higher = more synergy
Each entry below carries its reported Bliss excess.
Number only, please.

[[record]]
molecule = "Cc1cc2ncnn2cc1Nc1ncc2c(n1)n(C1CCOCC1)c(=O)n2C [AZD7648] + C[C@@H]1COCCN1C2=NC(=NC(=C2)C3(CC3)[S@](=N)(=O)C)C4=C5C=CNC5=NC=C4 [AZD6738] (first compound max 10 µM, 7x7, partner max 10 µM)"
result_value = 0.0513

[[record]]
molecule = "CN(CCO)CC[C@H](CSc1ccccc1)Nc1ccc(S(=O)(=O)NC(=O)c2ccc(N3CCC([C@@H](O)c4ccccc4-c4ccc(Cl)cc4)CC3)cc2)cc1S(=O)(=O)C(F)(F)F [AZD4320] + Cc1cc2ncnn2cc1Nc1ncc2c(n1)n(C1CCOCC1)c(=O)n2C [AZD7648] (first compound max 1 µM, 7x7, partner max 10 µM)"
result_value = -0.0279


Next, consider the following molecule.
Exam item: For the molecule O=C(c1cc(Cc2n[nH]c(=O)c3ccccc23)ccc1F)N1CCN(C(=O)C2CC2)CC1 [Olaparib] + CC1(C)CCC(CN2CCN(c3ccc(C(=O)NS(=O)(=O)c4ccc(NCC5CCOCC5)c([N+](=O)[O-])c4)c(Oc4cnc5[nH]ccc5c4)c3)CC2)=C(c2ccc(Cl)cc2)C1 [Venetoclax] (first compound max 10 µM, 7x7, partner max 1 µM) , give its reported Bliss excess.
Marked response: -0.0395

###

# System: PANC-02-03 (Pancreatic Carcinoma)
# Protocol Details: combination Emax (second highest fraction inhibited in the dose matrix, 72 h); higher = more inhibition; extreme values may be limits of the assay
Measure Name: combination Emax
Number only, please.

[[record]]
compound = "NC1(C(=O)N[C@@H](CCO)c2ccc(Cl)cc2)CCN(c2ncnc3[nH]ccc23)CC1 [Capivasertib] + CC(=O)c1c(C)c2cnc(Nc3ccc(N4CCNCC4)cn3)nc2n(C2CCCC2)c1=O [Palbociclib] (first compound max 10 µM, 7x7, partner max 10 µM)"
measure_name = "combination Emax"
result_value = 0.202

[[record]]
compound = "COc1cccc(OCCCN)c1-c1cc(Nc2cnc(C#N)cn2)n[nH]1 [Prexasertib] + C[C@@H]1COCCN1C2=NC(=NC(=C2)C3(CC3)[S@](=N)(=O)C)C4=C5C=CNC5=NC=C4 [AZD6738] (first compound max 1 µM, 7x7, partner max 10 µM)"
measure_name = "combination Emax"
result_value = 0.639

[[record]]
compound = "C=CCn1c(=O)c2cnc(Nc3ccc(N4CCN(C)CC4)cc3)nc2n1-c1cccc(C(C)(C)O)n1 [AZD1775] + C1CN(CCC1(C(=O)N[C@@H](CCO)C2=CC=C(C=C2)Cl)N)C3=NC=NC4=C3C=CN4 [Capivasertib] (first compound max 3 µM, partner max 3 µM)"
measure_name = "combination Emax"
result_value = 0.605


Next, consider the following compound.
Exam item: For the compound COc1cccc(OCCCN)c1-c1cc(Nc2cnc(C#N)cn2)n[nH]1 [Prexasertib] + C=CCn1c(=O)c2cnc(Nc3ccc(N4CCN(C)CC4)cc3)nc2n1-c1cccc(C(C)(C)O)n1 [AZD1775] (first compound max 1 µM, partner max 1 µM) , give its reported combination Emax.
Marked response: 0.662

###

Each entry below carries its reported combination Emax.
# Tested on: BALL-1 (B-Lymphoblastic Leukemia)
# Protocol Details: combination Emax (second highest fraction inhibited in the dose matrix, 72 h); higher = more inhibition; extreme values may be limits of the assay
Number only, please.

Consider the following illustrative entries.
[[record]]
compound = "CC(=O)c1c(C)c2cnc(Nc3ccc(N4CCNCC4)cn3)nc2n(C2CCCC2)c1=O [Palbociclib] + CC1(C)CCC(CN2CCN(c3ccc(C(=O)NS(=O)(=O)c4ccc(NCC5CCOCC5)c([N+](=O)[O-])c4)c(Oc4cnc5[nH]ccc5c4)c3)CC2)=C(c2ccc(Cl)cc2)C1 [Venetoclax] (first compound max 10 µM, 7x7, partner max 1 µM)"
result_value = 1

[[record]]
compound = "Cc1cc2ncnn2cc1Nc1ncc2c(n1)n(C1CCOCC1)c(=O)n2C [AZD7648] + CCN(CCO)CCCOc1ccc2c(Nc3cc(CC(=O)Nc4cccc(F)c4)[nH]n3)ncnc2c1 [AZD2811] (first compound max 10 µM, 7x7, partner max 1 µM)"
result_value = 0.53

[[record]]
compound = "CC1(C)CCC(CN2CCN(c3ccc(C(=O)NS(=O)(=O)c4ccc(NCC5CCOCC5)c([N+](=O)[O-])c4)c(Oc4cnc5[nH]ccc5c4)c3)CC2)=C(c2ccc(Cl)cc2)C1 [Venetoclax] + Cc1cc2ncnn2cc1Nc1ncc2c(n1)n(C1CCOCC1)c(=O)n2C [AZD7648] (first compound max 1 µM, 7x7, partner max 10 µM)"
result_value = 1

[[record]]
compound = "C=CCn1c(=O)c2cnc(Nc3ccc(N4CCN(C)CC4)cc3)nc2n1-c1cccc(C(C)(C)O)n1 [AZD1775] + C[C@@H]1COCCN1C2=NC(=NC(=C2)C3(CC3)[S@](=N)(=O)C)C4=C5C=CNC5=NC=C4 [AZD6738] (first compound max 1 µM, partner max 10 µM)"
result_value = 0.988

[[record]]
compound = "CCc1c2c(nc3ccc(O)cc13)-c1cc3c(c(=O)n1C2)COC(=O)[C@]3(O)CC [SN-38] + CN(C)CCCOc1ccc(-c2ccc3ncc4c(c3c2)n(C2CCOCC2)c(=O)n4C)cn1 [AZD0156] (first compound max 0.3 µM, 7x7, partner max 1 µM)"
result_value = 1

[[record]]
compound = "COc1cccc(OCCCN)c1-c1cc(Nc2cnc(C#N)cn2)n[nH]1 [Prexasertib] + C=CCn1c(=O)c2cnc(Nc3ccc(N4CCN(C)CC4)cc3)nc2n1-c1cccc(C(C)(C)O)n1 [AZD1775] (first compound max 1 µM, partner max 1 µM)"
result_value = 0.997


Exam item: For the compound Cc1c2c(nn1C)CSCc1cc(n(C)n1)CSc1cc(c3ccccc3c1)OCCCc1c(C(=O)O)n(C)c3c-2c(Cl)ccc13 [AZD5991] + Cc1cc2ncnn2cc1Nc1ncc2c(n1)n(C1CCOCC1)c(=O)n2C [AZD7648] (first compound max 1 µM, 7x7, partner max 10 µM) , give its reported combination Emax.
Marked response: 0.556

###

# System: NCI-H1563 (Lung Adenocarcinoma)
# Protocol Details: combination Emax (second highest fraction inhibited in the dose matrix, 72 h); higher = more inhibition; extreme values may be limits of the assay
Each entry below carries its reported combination Emax.

[[record]]
compound = "CC1(C)CCC(CN2CCN(c3ccc(C(=O)NS(=O)(=O)c4ccc(NCC5CCOCC5)c([N+](=O)[O-])c4)c(Oc4cnc5[nH]ccc5c4)c3)CC2)=C(c2ccc(Cl)cc2)C1 [Venetoclax] + Cn1cnc2c(F)c(Nc3ccc(Br)cc3Cl)c(C(=O)NOCCO)cc21 [Selumetinib] (first compound max 1 µM, 7x7, partner max 3 µM)"
result_value = 0.242


Exam item: For the compound CC(=O)c1c(C)c2cnc(Nc3ccc(N4CCNCC4)cn3)nc2n(C2CCCC2)c1=O [Palbociclib] + Cc1c2c(nn1C)CSCc1cc(n(C)n1)CSc1cc(c3ccccc3c1)OCCCc1c(C(=O)O)n(C)c3c-2c(Cl)ccc13 [AZD5991] (first compound max 10 µM, 7x7, partner max 1 µM) , give its reported combination Emax.
Marked response: 0.609
